# Test system: MS2 coat protein
# protocolText: apparent KD of MS2 coat protein; designed switch direction (-1 OFF switch, 1 ON switch): -1; higher = weaker reporter binding
# cond: Eterna round: R95; input ligand: none
Quick list: apparent KD of MS2 coat protein per entry.
Put down the number, then write its unit next to it.

Some solved cases for reference:
CCUAGCCUAAAAUCACGCAAGCUUUUUGCUUGUCUUAAGACAUGAGGAUCACCCAUGUCCGGGCUGAACUUAUGGAA [Veorxe] (puzzle: Sensor v3, turn-off variant 2) :: 16.6 nM
AAGAAACAUGAGGAUCACCCAUGUGAGGAUAUGAAAAAUAAAAGAAAAGAAAGAAUAAUCAGAAGGCACAAAGG [Mat - Mod of Hog D10] (puzzle: Exclusion 1) :: 41.4 nM

Alright, here's another sequence for you.
Noted for GGUCUGCGAGGAUAUACAUGAGGAUCACCCAUGUGCGUGAUACUAGUGAGGUCGGUUGGUAGAAGGCGCGGACG [JL-ex3-2.08 salish99 mod] (puzzle: Exclusion 3) : its apparent KD of MS2 coat protein reads 649 nM
